assay: P. aeruginosa biofilm formation inhibitors, primary screen, PAO1 strain, BacTiter-Glo luminescence, LB-PBS (AID 1144); settings: 12 h, higher = more signal
MEASUREMENT NAME: z-score
Respond with the number and no other words.

{"SMILES TEXT": "COC(=O)CC=C[C@@H](C)[C@@H](C=NOC[C@@H](O)[C@H]1O[C@@H]2OC(C)(C)O[C@@H]2[C@H]1O)NS(=O)(=O)c1ccc(C)cc1", "z-score": 0.603}
{"SMILES TEXT": "COc1ccc(O[C@H]2C=C[C@@H](c3ccccc3)O[C@@H]2CON=C(C)CCC(=O)OC[C@H]2O[C@H](c3ccccc3)C=C[C@@H]2Oc2ccc(OC)cc2)cc1", "z-score": 0.107}
{"SMILES TEXT": "C=CC[C@@H]1C=C[C@H](ON=C(C)CCC(=O)OC[C@H]2O[C@H](c3ccccc3)C=C[C@@H]2Oc2ccc(OC)cc2)[C@@H](CO)O1", "z-score": -0.743}

Proceeding to the next compound to report its z-score.
// recorded z-score for `Cn1c(=O)n2n(c1=O)[C@H]1[C@H](O)[C@@H]3O[C@@H]3C(=O)[C@H]1CC2` : 0.0513

* * *

assay: fission yeast growth modulation, primary screen, strain 972, OD600, 24 h, no modulator (AID 1090);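 note: basal condition with compound alone and no growth modifier present; test concentration not given here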; details: S. pombe 972 growth, called active from +8 up or from −8 down
Active and inactive are the calls of the source.
Pick one: active, inactive

{"MOLECULE": "O=C1[C@H]2[C@H]3[C@H](O)[C@H](O)CC(=NOC[C@@H](O)COCc4ccco4)[C@H]3CC[C@H]2C(=O)N1Cc1ccccc1", "ASSIGNED LABEL": "inactive"}

Q: Hi, do you know how `C[C@@H]1CC[C@H]2C(=O)O[C@@H](COc3ccc(C(C)(C)C)cc3)CN2[C@@H]1c1ccc(Br)cc1` came out in this test?
A: inactive

Q: Hi, do you know how CCOC(=O)[C@H](Cc1ccccc1)NC(=O)CCC1CC(OC(=O)NCCc2ccc(F)cc2)CC2(CCCC(COC(=O)NCCc3ccc(Cl)cc3)O2)O1 (stereo not given in full) came out in this test?
A: inactive

Q: Hi, do you know how `CCc1cc2c(nc1CC)CCN(CCC(C)=NO[C@H](C)c1cn([C@@H]3COC[C@H]3O)nn1)C2` came out in this test?
A: inactive

Q: Hi, do you know how CCOC(=O)[C@H](Cc1ccccc1)NC(=O)CCC1CC(OC(=O)NCc2cccc3ccccc23)CC2(CCCC(COC(=O)NCc3ccccc3)O2)O1 (stereo not given in full) came out in this test?
A: inactive

Q: Hi, do you know how `CCOC(=O)C1=NO[C@@]2(C=C(Br)C3(OCCCO3)[C@H]3O[C@H]32)C1` came out in this test?
A: inactive

Q: Hi, do you know how `CCc1cc2c(nc1CC)CCN(CCC(C)=NO[C@@H](C)c1cn([C@H](CO)Cc3ccccc3)nn1)C2` came out in this test?
A: inactive

Q: Hi, do you know how `CCCNC(=O)OC[C@H]1O[C@H](CCON=C(C)CCN2CCc3nc(CC)c(CC)cc3C2)C=C[C@@H]1Oc1ccc(OC)cc1` came out in this test?
A: inactive

* * *

experiment: modulators of S6 phosphorylation in cells, primary screen, cell-based, A549, cytoblot, luminescence, serum-stimulated (AID 1158); conditions: A549 phospho-S6 cytoblot, 5 h, higher = more signal;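 note: serum-stimulated A549 lung adenocarcinoma cells; signal is phosphorylated S6 detected by cytoblot immunostaining with HRP secondary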
Entries and their z-score values follow.
Respond with the number and no other words.

// recorded z-score for `CC(C)CON=C1C[C@@H](O)[C@@H](O)[C@@H]2[C@@H]3C(=O)N(C4CCCCC4)C(=O)[C@@H]3CC[C@@H]12` : -0.354

// recorded z-score for CCC=CCCC(OC(=O)c1ccc(Br)cc1)C1=CCCCC1=O (configuration not stated) : 0.86

// recorded z-score for CCOC(=O)[C@H](CC(C)C)NC(=O)CCC1CC(OC(=O)NCc2ccc3c(c2)OCO3)CC2(CCCC(COC(=O)NCCCN3CCCC3=O)O2)O1 (some centres not stated) : 0.375

// recorded z-score for CCC1=NOC(CCC2CC(OC(=O)NCc3cccc4c3OCO4)CC3(CCCC(COC(=O)NCCc4ccccc4OC)O3)O2)C1 (configuration not stated) : 0.0314

// recorded z-score for `CC(C)CON=C1[C@H]2CCn3c(=O)n(Cc4cc5c(cc4Cl)OCO5)c(=O)n3[C@H]2[C@H](O)[C@@H]2O[C@H]12` : 0.261

// recorded z-score for `CCOC(=O)NN=C1C[C@@H](O)[C@@H](O)[C@@H]2[C@@H]3C(=O)N([C@@H](C)c4ccccc4)C(=O)[C@@H]3CC[C@@H]12` : -0.25

// recorded z-score for `CCN1C(=O)[C@H]2[C@H]3[C@H](O)[C@H](O)CC(=NNC(=O)OCc4ccc(OC)cc4)[C@@H]3CC[C@H]2C1=O` : 0.117

// recorded z-score for `CO[C@H]1COC(=O)CCC[C@@H](C)[C@H](OC)COC(=O)[C@@H]2CCCN2C(=O)CC=C[C@@H]1C` : -0.112

// recorded z-score for `CO[C@H]1COC(=O)[C@@H](Cc2ccccc2)NC(=O)[C@@H](C)COC(=O)CCC[C@@H]1C` : 0.781

// recorded z-score for `CC(CCN1CCCCc2nc(C)c(C)cc21)=NO[C@H](C)c1cn([C@H](CO)Cc2ccccc2)nn1` : -0.286

// recorded z-score for `CO[C@@H]1C=CCC(=O)N2CCC[C@H]2C(=O)OC[C@@H](C)C(=O)OC[C@H]1C` : 0.467

* * *

Entries and their z-score values follow.
experiment: E. coli DRC41 culture turbidity changes, primary screen, E. coli filamentation inducer project, strain DRC41, OD650, 48 h (AID 1152);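 note: E. coli MC1000 strain DRC41 lacking acrAB efflux pump and sulA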; details: E. coli DRC41 (acrAB sulA), higher = more signal, called active from +8 up or from −8 down
Activity calls are given as the source filed them.

{"COMPOUND": "Cc1ccc(S(=O)(=O)NC(CCc2ccccc2)CC(=O)C(C)(C)C)cc1 (centres undefined)", "z-score": "-0.286 (inactive)"}
{"COMPOUND": "O=C1C=C[C@@H](O)[C@@H]2[C@@H]3C(=O)N(c4ccc(F)cc4F)C(=O)[C@@H]3CC[C@@H]12", "z-score": "0.262 (inactive)"}
{"COMPOUND": "O=C1C2=CC[C@H]3C(=O)N(c4cccc(Oc5ccccc5)c4)C(=O)[C@H]3[C@H]2[C@H](O)[C@@H]2O[C@H]12", "z-score": "-0.462 (inactive)"}
{"COMPOUND": "COC(=O)[C@H](C)NC(=O)CCC1CC(OC(=O)NCc2ccc3c(c2)OCO3)CC2(CCCC(COC(=O)NCCc3ccccc3OC)O2)O1 (some centres undefined)", "z-score": "-0.0563 (inactive)"}
{"COMPOUND": "O=C1C[C@@H](O)[C@@H](O)[C@@H]2[C@@H]3C(=O)N(c4cccc(Oc5ccccc5)c4)C(=O)[C@@H]3CC[C@H]12", "z-score": "-0.367 (inactive)"}
{"COMPOUND": "CC(=O)OC[C@H]1O[C@@H](ON=C(C)CCN2CCCc3nc(C)c(C)cc32)[C@H](OC(C)=O)[C@@H](OC(C)=O)[C@@H]1OC(C)=O", "z-score": "-1.13 (inactive)"}
{"COMPOUND": "CCOC(=O)[C@H](Cc1ccccc1)NC(=O)CCC1CC(OC(=O)NCCc2ccc(F)cc2)CC2(CCCC(COC(=O)NCc3ccccc3)O2)O1 (some centres undefined)", "z-score": "-0.713 (inactive)"}
{"COMPOUND": "CC(=O)OC[C@H]1OC(ON=CC[C@@H]2C=C[C@H](OC(C)=O)[C@@H](COC(C)=O)O2)[C@H](OC(C)=O)[C@@H](OC(C)=O)[C@@H]1OC(C)=O (some centres undefined)", "z-score": "-0.0016 (inactive)"}

// recorded z-score for `COC(=O)[C@@H]1CC[C@H](C)[C@@H](c2ccc(C)cc2)N1C(=O)c1ccc(C=NO[C@H](C)c2cn([C@@H]3COC[C@H]3O)nn2)cc1` : 0.153 (inactive)

// recorded z-score for CCOC(=O)[C@H](CC(C)C)NC(=O)CCC1CC(OC(=O)NCCc2ccc(F)cc2)CC2(CCCC(COC(=O)NCCc3ccc(Cl)cc3)O2)O1 (some centres undefined) : -1.29 (inactive)

// recorded z-score for `CC(CCC(=O)OC[C@H]1O[C@H](C#Cc2ccccc2)C=C[C@@H]1Oc1ccc(C)cc1)=NO[C@H](C)c1cn([C@H](CO)Cc2ccccc2)nn1` : -0.757 (inactive)

// recorded z-score for `CO[C@@H]1C=CCC(=O)N2CCC[C@H]2C(=O)OC[C@@H](C)C(=O)OC[C@H]1C` : 1.12 (inactive)

// recorded z-score for `O=C1[C@H]2[C@H]3[C@H](O)[C@H](O)CC(=NOC[C@@H](O)COCc4ccco4)[C@@H]3CC[C@H]2C(=O)N1C[C@@H]1CCCO1` : 0.916 (inactive)

// recorded z-score for `COC(=O)CC=C[C@@H](C)[C@@H]1C=C[C@H](O)[C@@H](CO)O1` : 0.372 (inactive)
